# TESTED SYSTEM: D(1B) dopamine receptor (Homo sapiens) (UniProt P21918)
# Sequence (P21918 whole entry, looked up): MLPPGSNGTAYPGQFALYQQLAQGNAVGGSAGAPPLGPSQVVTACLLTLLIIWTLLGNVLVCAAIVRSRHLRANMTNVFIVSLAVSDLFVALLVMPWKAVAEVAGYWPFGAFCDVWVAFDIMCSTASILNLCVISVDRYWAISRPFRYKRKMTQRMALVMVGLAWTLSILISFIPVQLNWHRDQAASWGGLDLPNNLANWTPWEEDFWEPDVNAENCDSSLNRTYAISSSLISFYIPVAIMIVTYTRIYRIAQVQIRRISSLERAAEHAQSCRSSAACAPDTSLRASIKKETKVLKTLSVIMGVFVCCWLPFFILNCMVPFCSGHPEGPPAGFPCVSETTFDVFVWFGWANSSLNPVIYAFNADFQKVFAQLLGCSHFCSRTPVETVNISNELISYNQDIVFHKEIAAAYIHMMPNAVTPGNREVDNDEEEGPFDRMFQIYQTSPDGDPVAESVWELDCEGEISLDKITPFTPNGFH
# ASSAY DETAILS: D5 receptor allosteric modulators, concentration-response – cell-based, HEK293, CRE-luciferase, luminescence, EC30 dopamine, selectivity assay for D1 allosteric modulator project, dose response (AID 857);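 further: HEK 293 cells expressing human D5 with a CRE-driven luciferase reporter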
Activity calls are given as the source filed them.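 How the source made its calls: active means a full or partial dose-response curve in at least two of three replicate runs; inactive means the rest.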
ENDPOINT: outcome

INSERT INTO assay_data (compound, endpoint, result) VALUES
  ('N#CC1=C(N)n2c(s/c(=C\c3ccco3)c2=O)=C(C#N)C1c1ccco1 (stereo unspecified)', 'outcome', 'inactive'),
  ('Nc1nonc1-n1nnc(C(=O)c2ccccc2)c1-c1ccccc1', 'outcome', 'inactive'),
  ('COc1ccc(OC)c(NC(=O)CSc2nc3ccccc3c(=O)n2CCNC(C)=O)c1', 'outcome', 'inactive'),
  ('CCOc1ccc(CC(=O)Nc2c(C(N)=O)oc3ccccc23)cc1OCC', 'outcome', 'inactive'),
  ('Cc1ccc(-n2c(SCC(=O)OC(C)C)nnc2-c2cnccn2)cc1', 'outcome', 'inactive'),
  ('COc1ccc(OC)c(C2C=C(c3ccc(C)c(C)c3)Nc3nnnn32)c1 (stereo unspecified)', 'outcome', 'inactive'),
  ('CCn1c(SCC(=O)Nc2ccccc2N2CCCCC2)nc2c1c(=O)n(C)c(=O)n2C', 'outcome', 'inactive'),
  ('COc1ccc(S(=O)(=O)N(C)c2ccc(C(=O)N3CCOCC3)cc2)cc1OC', 'outcome', 'inactive'),
  ('CC(C)C1C2=C(CC(C)(C)CC2=O)ON1c1ccccc1 (stereo unspecified)', 'outcome', 'inactive'),
  ('COc1ccccc1NC(=O)CC1Nc2ccccc2NC1=O (stereo unspecified)', 'outcome', 'inactive'),
  ('COc1ccc(-c2noc(CCN3C(=O)c4ccccc4C3=O)n2)cc1OC', 'outcome', 'inactive');
